Numbers sourced from the supplement of paper PMC9112550.

- Tested on: Escherichia coli TOP10
- PROCEDURE SUMMARY: shrunken log2 fold change of peptide-encoding DNA abundance (4.5 h post-induction vs induction); higher = less antimicrobial activity (less host growth inhibition)
- RUN CONDITIONS: time post-induction: 4.5 h; library: site-saturation at positions 5, 18, 19, 20
Assign shrunken log2 fold change to each entry below.
Numbers only.

>>> print(df.to_string())
            entry_sequence          observed_property  reported
0  RRIRMRPPRLPRPRPRPWCMPRP  shrunken log2 fold change   -0.0453
1  RRIRVRPPRLPRPRPRPYMTPRP  shrunken log2 fold change    -0.566
2  RRIRTRPPRLPRPRPRPIRYPRP  shrunken log2 fold change   -0.0148
3  RRIRGRPPRLPRPRPRPMTTPRP  shrunken log2 fold change      1.16
4  RRIRARPPRLPRPRPRPPYGPRP  shrunken log2 fold change    0.0793
5  RRIRMRPPRLPRPRPRPYAMPRP  shrunken log2 fold change    -0.155
6  RRIRVRPPRLPRPRPRPFYHPRP  shrunken log2 fold change    -0.502

Kindly consider the entry below.
For RRIRGRPPRLPRPRPRPNQHPRP the sequence record lists shrunken log2 fold change as 0.189

====

- System: Escherichia coli TOP10
- PROCEDURE SUMMARY: shrunken log2 fold change of peptide-encoding DNA abundance (4.5 h post-induction vs induction); higher = less antimicrobial activity (less host growth inhibition)
- RUN CONDITIONS: time post-induction: 4.5 h; library: site-saturation at positions 5, 18, 19, 20
Could you please report measured shrunken log2 fold change for the items listed next?

Worked examples follow.
In [3]: df
Out[3]:
            entry_sequence          observed_property  reported
0  RRIRMRPPRLPRPRPRPWQQPRP  shrunken log2 fold change   -0.0113
1  RRIRPRPPRLPRPRPRPYHFPRP  shrunken log2 fold change    -0.245
2  RRIRSRPPRLPRPRPRPIQIPRP  shrunken log2 fold change   -0.0243

Quick one: give me shrunken log2 fold change for each item below, same order please.
1. RRIRGRPPRLPRPRPRPAMHPRP
2. RRIRERPPRLPRPRPRPWHEPRP
3. RRIRMRPPRLPRPRPRPKAPPRP

Outgoing:
1: 1.03; 2: -0.0932; 3: 1.42

For each of the items listed, what is its shrunken log2 fold change?
1. RRIRERPPRLPRPRPRPVKMPRP
2. RRIRNRPPRLPRPRPRPKKHPRP

Outgoing:
[-0.0989, -0.315]

Each sequence below has a reported value. Please supply its shrunken log2 fold change.
1. RRIRHRPPRLPRPRPRPCNWPRP
2. RRIRQRPPRLPRPRPRPPKVPRP
3. RRIRLRPPRLPRPRPRPKAIPRP
4. RRIRDRPPRLPRPRPRPYPKPRP
5. RRIRVRPPRLPRPRPRPTGDPRP
6. RRIRSRPPRLPRPRPRPAKWPRP
7. RRIRIRPPRLPRPRPRPRTLPRP

Outgoing:
[-0.0331, "2.65e-05", 0.0195, -0.143, -0.0504, 0.235, -0.259]

====

- System: Escherichia coli TOP10;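 also: peptides expressed intracellularly from a pBAD plasmid library in pooled LB shake-flask culture, induced with 0.3% L-arabinose, DNA abundance read by NGS, three biological replicates, DESeq2 with apeglm shrinkage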
- PROCEDURE SUMMARY: shrunken log2 fold change of peptide-encoding DNA abundance (4.5 h post-induction vs induction); higher = less antimicrobial activity (less host growth inhibition)
- RUN CONDITIONS: time post-induction: 4.5 h; library: site-saturation at positions 5, 18, 19, 20
OBSERVED PROPERTY: shrunken log2 fold change

Before answering, review these 3 worked examples.
            entry_sequence  reported
0  RRIRTRPPRLPRPRPRPYFPPRP    -0.995
1  RRIRGRPPRLPRPRPRPPAHPRP      1.02
2  RRIRMRPPRLPRPRPRPSPFPRP     0.124

I would be grateful if you could provide shrunken log2 fold change for each of the following entries.
1. RRIRQRPPRLPRPRPRPTSPPRP
2. RRIRTRPPRLPRPRPRPPNQPRP
3. RRIRGRPPRLPRPRPRPCDLPRP

Outgoing:
0.218
0.185
0.0268

Hey, can you go through the list below and give me shrunken log2 fold change for every item?
1. RRIRSRPPRLPRPRPRPFSGPRP
2. RRIRYRPPRLPRPRPRPVMKPRP
3. RRIRFRPPRLPRPRPRPVQGPRP
4. RRIRVRPPRLPRPRPRPIHEPRP
5. RRIRERPPRLPRPRPRPTECPRP
6. RRIRVRPPRLPRPRPRPKPIPRP
7. RRIRPRPPRLPRPRPRPWLKPRP
8. RRIRIRPPRLPRPRPRPGVHPRP

Outgoing:
1. -0.134
2. -0.131
3. -0.169
4. 0.0255
5. -0.00173
6. -0.0649
7. -0.371
8. 0.241

Each sequence below has a recorded value; state its shrunken log2 fold change.
1. RRIRYRPPRLPRPRPRPMMFPRP
2. RRIRKRPPRLPRPRPRPASSPRP
3. RRIRPRPPRLPRPRPRPYPDPRP
4. RRIRVRPPRLPRPRPRPDIKPRP
5. RRIRQRPPRLPRPRPRPRAGPRP
6. RRIRSRPPRLPRPRPRPPPCPRP
7. RRIRWRPPRLPRPRPRPVSTPRP
8. RRIRVRPPRLPRPRPRPMWPPRP

Outgoing:
[-0.091, 0.0469, -0.145, -0.912, 0.389, 0.408, 0.138, 0.0245]

Please look at the items below and tell me shrunken log2 fold change for each one, in order.
1. RRIRRRPPRLPRPRPRPESPPRP
2. RRIRCRPPRLPRPRPRPCKMPRP

Outgoing:
[0.5, 5.36]

For each entry beneath this line, provide reported shrunken log2 fold change.
1. RRIRMRPPRLPRPRPRPFWMPRP
2. RRIRARPPRLPRPRPRPQTKPRP
3. RRIRYRPPRLPRPRPRPLCMPRP
4. RRIRERPPRLPRPRPRPFYGPRP
5. RRIRCRPPRLPRPRPRPAFRPRP
6. RRIRSRPPRLPRPRPRPNVIPRP
7. RRIRLRPPRLPRPRPRPVKGPRP

Outgoing:
1: 0.154; 2: 0.135; 3: -0.795; 4: 0.015; 5: 0.25; 6: 0.0185; 7: -0.00152

Provide the reported shrunken log2 fold change of each entry below, same order.
1. RRIRPRPPRLPRPRPRPHPPPRP
2. RRIRLRPPRLPRPRPRPFYWPRP
3. RRIRHRPPRLPRPRPRPCHQPRP
4. RRIRSRPPRLPRPRPRPDRFPRP
5. RRIRRRPPRLPRPRPRPGEGPRP
6. RRIRKRPPRLPRPRPRPQSPPRP

Outgoing:
1: 0.397; 2: 0.228; 3: -0.601; 4: -0.0456; 5: 0.747; 6: 0.18

For the 8 sequences below, give their shrunken log2 fold change values.
1. RRIRPRPPRLPRPRPRPRVQPRP
2. RRIRLRPPRLPRPRPRPVMWPRP
3. RRIRKRPPRLPRPRPRPQLSPRP
4. RRIRPRPPRLPRPRPRPSVAPRP
5. RRIRHRPPRLPRPRPRPVLKPRP
6. RRIRFRPPRLPRPRPRPKYGPRP
7. RRIRTRPPRLPRPRPRPETQPRP
8. RRIRIRPPRLPRPRPRPTAHPRP

Outgoing:
0.398
0.283
-0.272
0.0839
-0.295
-0.234
0.205
-0.313

# map each sequence to its shrunken log2 fold change
1. RRIRDRPPRLPRPRPRPNFDPRP
2. RRIRSRPPRLPRPRPRPEWQPRP
3. RRIRTRPPRLPRPRPRPCKSPRP
4. RRIRGRPPRLPRPRPRPGPTPRP
5. RRIRRRPPRLPRPRPRPKTPPRP
6. RRIRSRPPRLPRPRPRPMCCPRP
7. RRIRWRPPRLPRPRPRPLYKPRP

Outgoing:
[-0.0173, 0.254, 0.075, 1.51, 0.782, 0.109, -0.849]
